Cited source: patent US20200283478A1

target: T1, His-tagged PCSK9Δhelix (human, UniProt Q8NBP7 31-152; Q8NBP7 168-692); assay: TR-FRET competition; His-PCSK9Δhelix, competitor Ab20
T1 construct: Construct M1-Q692 with engineered TEV site, cut by TEV protease; new N-terminus of the catalytic domain is S-A168; also called His-PCSK9Δhelix
T1 sequence (Q8NBP7 31-152, stated change not applied, chain 1 of 2): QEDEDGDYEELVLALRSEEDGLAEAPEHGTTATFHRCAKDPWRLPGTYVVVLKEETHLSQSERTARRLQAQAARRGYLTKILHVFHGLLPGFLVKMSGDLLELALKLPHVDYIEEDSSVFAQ
T1 sequence (Q8NBP7 other isoform, or with tags, fused parts or gaps mutant, chain 2 of 2): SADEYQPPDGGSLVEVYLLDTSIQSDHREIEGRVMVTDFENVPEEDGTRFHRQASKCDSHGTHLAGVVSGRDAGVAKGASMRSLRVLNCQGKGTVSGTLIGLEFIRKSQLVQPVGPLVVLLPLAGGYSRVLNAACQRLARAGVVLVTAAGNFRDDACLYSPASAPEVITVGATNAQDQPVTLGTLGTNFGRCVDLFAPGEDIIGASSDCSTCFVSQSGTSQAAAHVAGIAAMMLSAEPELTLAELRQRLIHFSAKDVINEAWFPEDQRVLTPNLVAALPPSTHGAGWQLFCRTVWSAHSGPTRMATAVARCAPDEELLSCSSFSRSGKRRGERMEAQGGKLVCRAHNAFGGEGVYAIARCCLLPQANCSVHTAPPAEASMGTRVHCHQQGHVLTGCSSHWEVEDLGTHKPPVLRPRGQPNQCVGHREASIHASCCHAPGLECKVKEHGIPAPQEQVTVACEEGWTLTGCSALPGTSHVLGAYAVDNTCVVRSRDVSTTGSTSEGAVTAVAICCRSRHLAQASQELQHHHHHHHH
Square brackets hold non-standard residues; d marks the D form. Ends that are not written are not given here. hArg = N=C(N)NCCCC[C@H](N)C(=O)O
Outcome measure: IC50 (µM)
Give just the numeric value; µM need not be written.

[[record]]
binder = "WNLVRIGLTR (also: further groups not given here, Structure printed only as a drawing) [Compound 167]"
endpoint_unit = "µM"
observed = 43

[[record]]
binder = "WNLV[hArg]IGLLR (also: further groups not given here, Structure printed only as a drawing) [Compound 206]"
endpoint_unit = "µM"
observed = 0.87

[[record]]
binder = "Ac-SFAFPGWNLK[hArg]IGLLR-NH2 (SMILES CC[C@H](C)[C@H](NC(=O)[C@H](CCCCNC(=N)N)NC(=O)[C@H](CCCCN)NC(=O)[C@H](CC(C)C)NC(=O)[C@H](CC(N)=O)NC(=O)[C@H](Cc1c[nH]c2ccccc12)NC(=O)CNC(=O)[C@@H]1CCCN1C(=O)[C@H](Cc1ccccc1)NC(=O)[C@H](C)NC(=O)[C@H](Cc1ccccc1)NC(=O)[C@H](CO)NC(C)=O)C(=O)NCC(=O)N[C@@H](CC(C)C)C(=O)N[C@@H](CC(C)C)C(=O)N[C@@H](CCCNC(=N)N)C(N)=O) [Compound 232]"
endpoint_unit = "µM"
observed = 13


Below: the item to evaluate.
Record WNLV[hArg]IGLLR (also: end groups and other groups only in drawing, Structure printed only as a drawing) [Compound 194] . Reported IC50: 1.9
